Measurement Target: NAD-dependent protein deacetylase sirtuin-1 (Homo sapiens) (UniProt Q96EB6)
Sequence (Q96EB6 whole entry): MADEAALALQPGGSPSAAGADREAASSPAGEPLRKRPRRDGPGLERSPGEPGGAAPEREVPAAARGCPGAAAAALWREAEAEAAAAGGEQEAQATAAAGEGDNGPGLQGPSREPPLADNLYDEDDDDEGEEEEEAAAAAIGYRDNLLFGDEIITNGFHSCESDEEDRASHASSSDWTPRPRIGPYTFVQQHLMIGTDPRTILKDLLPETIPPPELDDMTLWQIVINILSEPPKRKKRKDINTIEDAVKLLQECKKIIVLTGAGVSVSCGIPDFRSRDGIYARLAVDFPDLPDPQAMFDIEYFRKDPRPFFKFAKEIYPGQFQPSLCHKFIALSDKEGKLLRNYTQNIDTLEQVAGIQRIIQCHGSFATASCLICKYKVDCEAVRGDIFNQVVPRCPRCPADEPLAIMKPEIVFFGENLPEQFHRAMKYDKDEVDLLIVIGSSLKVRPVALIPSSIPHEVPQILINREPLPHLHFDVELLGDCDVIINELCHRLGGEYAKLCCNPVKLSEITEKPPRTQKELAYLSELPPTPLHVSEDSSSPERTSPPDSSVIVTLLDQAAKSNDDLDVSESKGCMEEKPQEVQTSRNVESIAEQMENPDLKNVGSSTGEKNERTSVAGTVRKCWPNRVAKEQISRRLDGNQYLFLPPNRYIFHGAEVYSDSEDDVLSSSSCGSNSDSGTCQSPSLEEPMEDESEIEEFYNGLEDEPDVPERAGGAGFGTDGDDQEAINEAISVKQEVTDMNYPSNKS
Assay Summary: Inhibition of recombinant human SitT1 at 60 uM by Fluor de Lys fluorescence assay
Label yes (1) for high-side inhibition (at or above 8%) and no (0) for low-side inhibition (below it).

CN(C)CCCCC(=O)Nc1ccc(NC(=S)NC(=O)c2ccccc2)cc1 = no (0)

State whether the measured inhibition reaches 8%, counting equality as reaching it, for CCCCc1ccc(C(=O)NC(=S)Nc2ccc(NC(=O)CCCCN(C)C)cc2)cc1.Cl
yes (1)

State whether the measured inhibition reaches 8%, counting equality as reaching it, for CN(C)CCCCC(=O)Nc1ccc(NC(=O)NC(=O)c2ccc(C(C)(C)C)cc2)cc1
yes (1)

State whether the measured inhibition reaches 8%, counting equality as reaching it, for CN(C)CCOCCOCCOCCOCCOCC(=O)Nc1ccc(NC(=S)NC(=O)c2ccc(C(C)(C)C)cc2)cc1.Cl
yes (1)
